concentration at 0.5 h values for the compounds below.
Protocol Details: Drug level in Dutch-Belted rabbit aqueous humor at 150 ug administered as topical ocular instillation after 30 mins by RP-HPLC analysis
Type: ADME, Oryctolagus cuniculus, Aqueous humor of eyeball
Condition Parameters: topical or ocular, read-out: Drug uptake
Respond with the bare value in nM.

As a guide, the following entries are already answered.
c1nc(N2CCCC2)c(N2CCCNCC2)nc1-c1cc2cn[nH]c2cn1 ... 680
CC(=O)NCCCN1CCN(c2nc(-c3ccncc3)cnc2N2CCCC2)CC1 ... 8300

Task: Data request, read-out concentration at 0.5 h, for CN(C)CC(O)CN1CCN(c2nc(-c3ccncc3)cnc2N2CCCC2)CC1 (stereo not drawn)
Output: 950

###

Protocol Details: Drug level in Dutch-Belted rabbit aqueous humor at 300 ug administered as topical ocular instillation after 30 mins by RP-HPLC analysis
Assay type: ADME, Oryctolagus cuniculus, Aqueous humor of eyeball
Condition Parameters: topical or ocular, read-out: Drug uptake
concentration at 0.5 h values for the molecules below.

Task: Data request, read-out concentration at 0.5 h, for OCCN1CCN(c2nc(-c3ccncc3)cnc2N2CCCC2)CC1
Output: 3.8 µM

Task: What do we get for C[C@@H](N)c1ccc(C(=O)Nc2ccnc3[nH]ccc23)cc1 ?
Output: 4.4 µM

###

Tested Target: UniProt Q13464
Sequence (Q13464 whole entry, the tested form may be a part): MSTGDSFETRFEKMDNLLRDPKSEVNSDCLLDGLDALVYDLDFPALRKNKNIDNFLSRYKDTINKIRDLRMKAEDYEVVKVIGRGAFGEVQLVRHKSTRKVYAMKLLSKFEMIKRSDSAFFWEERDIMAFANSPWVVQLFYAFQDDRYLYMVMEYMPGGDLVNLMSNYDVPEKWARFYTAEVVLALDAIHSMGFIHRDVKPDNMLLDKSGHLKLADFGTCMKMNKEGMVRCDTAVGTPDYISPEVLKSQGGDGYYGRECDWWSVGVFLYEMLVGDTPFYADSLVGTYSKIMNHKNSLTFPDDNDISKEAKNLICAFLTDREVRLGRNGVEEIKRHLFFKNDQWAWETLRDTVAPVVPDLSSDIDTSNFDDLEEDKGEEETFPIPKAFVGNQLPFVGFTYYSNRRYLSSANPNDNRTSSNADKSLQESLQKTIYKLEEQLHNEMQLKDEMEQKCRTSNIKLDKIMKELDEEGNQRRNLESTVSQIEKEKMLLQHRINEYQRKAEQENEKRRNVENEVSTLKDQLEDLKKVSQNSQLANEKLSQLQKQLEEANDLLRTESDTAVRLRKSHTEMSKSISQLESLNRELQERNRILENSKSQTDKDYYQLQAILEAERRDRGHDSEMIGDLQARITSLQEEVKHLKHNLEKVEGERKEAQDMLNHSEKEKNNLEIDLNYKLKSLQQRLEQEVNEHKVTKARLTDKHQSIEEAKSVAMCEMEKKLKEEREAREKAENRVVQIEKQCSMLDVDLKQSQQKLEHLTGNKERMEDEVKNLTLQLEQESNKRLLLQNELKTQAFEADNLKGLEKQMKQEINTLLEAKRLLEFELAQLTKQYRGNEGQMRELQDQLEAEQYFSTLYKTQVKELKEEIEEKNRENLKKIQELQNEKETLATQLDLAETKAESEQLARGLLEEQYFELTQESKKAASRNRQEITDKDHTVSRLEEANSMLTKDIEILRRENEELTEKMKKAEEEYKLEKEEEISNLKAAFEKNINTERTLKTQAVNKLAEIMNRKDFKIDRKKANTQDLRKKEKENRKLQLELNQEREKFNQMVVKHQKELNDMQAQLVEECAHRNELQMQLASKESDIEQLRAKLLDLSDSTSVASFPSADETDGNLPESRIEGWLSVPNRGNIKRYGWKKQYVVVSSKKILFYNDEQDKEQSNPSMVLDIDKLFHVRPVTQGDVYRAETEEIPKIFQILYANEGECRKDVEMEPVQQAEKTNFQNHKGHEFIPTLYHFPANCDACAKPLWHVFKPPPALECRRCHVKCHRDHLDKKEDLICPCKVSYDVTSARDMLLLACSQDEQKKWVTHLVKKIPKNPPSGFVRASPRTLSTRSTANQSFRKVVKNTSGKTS
Protocol Details: Inhibition of truncated ROCK-1 (unknown origin)
pIC50 values for the compounds below.
Notebook: values listed as pIC50 are -log10 of the concentration (mol/L).

Task: Data request, read-out pIC50, for CC(=O)NCC(O)CN1CCN(c2nc(-c3ccncc3)cnc2N2CCCC2)CC1 (configuration not stated)
Output: 6.46

Task: What do we get for Cc1n[nH]c2ccc(-c3cncc(N4CCCNCC4)n3)cc12 ?
Output: 6.85

Task: What do we get for CC(=O)NCCCN1CCN(c2nc(-c3ccncc3)cnc2N2CCCC2)CC1 ?
Output: 6.46

Task: What do we get for CN(C)CC(O)CN1CCN(c2nc(-c3ccncc3)cnc2N2CCCC2)CC1 (configuration not stated) ?
Output: 6.54

Task: What do we get for c1nc(N2CCCC2)c(N2CCCNCC2)nc1-c1cc2cn[nH]c2cn1 ?
Output: 6.69

Task: What do we get for OCCN1CCN(c2nc(-c3ccncc3)cnc2N2CCCC2)CC1 ?
Output: 6.24

Task: What do we get for c1cc2[nH]ncc2cc1-c1cncc(N2CCCNCC2)n1 ?
Output: 6.98

###

IC50 values for the compounds below.
Tested Target: Rho-associated protein kinase 2 (Homo sapiens)
Sequence (O75116 whole entry, the tested form may be a part): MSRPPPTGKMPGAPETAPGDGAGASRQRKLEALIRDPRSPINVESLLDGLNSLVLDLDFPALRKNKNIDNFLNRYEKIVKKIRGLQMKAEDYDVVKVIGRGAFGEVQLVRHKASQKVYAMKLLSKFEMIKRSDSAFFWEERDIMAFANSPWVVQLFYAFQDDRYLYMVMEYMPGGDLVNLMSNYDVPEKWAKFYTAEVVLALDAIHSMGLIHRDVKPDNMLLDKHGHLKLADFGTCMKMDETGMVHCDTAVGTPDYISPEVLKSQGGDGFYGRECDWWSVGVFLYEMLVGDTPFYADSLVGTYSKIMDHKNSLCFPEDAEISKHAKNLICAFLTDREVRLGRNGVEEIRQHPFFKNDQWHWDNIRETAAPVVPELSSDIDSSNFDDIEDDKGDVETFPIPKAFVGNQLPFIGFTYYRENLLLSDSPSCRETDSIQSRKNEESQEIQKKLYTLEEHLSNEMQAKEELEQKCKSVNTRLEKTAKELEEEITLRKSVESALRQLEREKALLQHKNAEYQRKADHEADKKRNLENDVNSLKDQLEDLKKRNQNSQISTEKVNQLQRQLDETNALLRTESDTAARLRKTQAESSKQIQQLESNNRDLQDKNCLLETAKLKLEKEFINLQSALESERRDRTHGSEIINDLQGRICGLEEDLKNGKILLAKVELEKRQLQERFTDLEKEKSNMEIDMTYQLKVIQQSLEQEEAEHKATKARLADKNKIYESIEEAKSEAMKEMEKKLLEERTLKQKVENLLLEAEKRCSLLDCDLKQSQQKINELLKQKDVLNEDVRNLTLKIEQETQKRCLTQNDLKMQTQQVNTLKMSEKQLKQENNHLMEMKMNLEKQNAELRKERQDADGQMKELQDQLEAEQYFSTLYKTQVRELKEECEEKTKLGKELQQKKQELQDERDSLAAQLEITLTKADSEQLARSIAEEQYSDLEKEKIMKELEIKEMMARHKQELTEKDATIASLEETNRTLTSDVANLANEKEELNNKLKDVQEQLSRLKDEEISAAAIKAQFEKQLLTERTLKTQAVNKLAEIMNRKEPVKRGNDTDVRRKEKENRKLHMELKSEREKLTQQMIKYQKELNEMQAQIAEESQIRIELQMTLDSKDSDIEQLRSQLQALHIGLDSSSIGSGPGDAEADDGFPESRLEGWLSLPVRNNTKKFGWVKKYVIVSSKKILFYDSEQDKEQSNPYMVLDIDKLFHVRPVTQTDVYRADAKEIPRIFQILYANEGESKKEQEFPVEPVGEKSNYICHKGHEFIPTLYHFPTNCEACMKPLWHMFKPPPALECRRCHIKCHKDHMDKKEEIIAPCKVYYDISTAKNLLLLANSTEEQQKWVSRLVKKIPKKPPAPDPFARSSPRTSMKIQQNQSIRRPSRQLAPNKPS
Protocol Details: Inhibition of truncated ROCK-2 (unknown origin) after 60 mins by IMAP assay
Write the quantity with the unit trailing the number.

As a guide, the following entries are already answered.
c1cc2[nH]ncc2cc1-c1cncc(N2CCCNCC2)n1 ... 24 nM
CC(=O)NCC(O)CN1CCN(c2nc(-c3ccncc3)cnc2N2CCCC2)CC1 (configuration not stated) ... 68 nM
c1nc(N2CCCC2)c(N2CCCNCC2)nc1-c1cc2cn[nH]c2cn1 ... 65 nM
CC(=O)NCCCN1CCN(c2nc(-c3ccncc3)cnc2N2CCCC2)CC1 ... 75 nM
OCCN1CCN(c2nc(-c3ccncc3)cnc2N2CCCC2)CC1 ... 39 nM
CN(C)CC(O)CN1CCN(c2nc(-c3ccncc3)cnc2N2CCCC2)CC1 (configuration not stated) ... 76 nM

Now for another entry.
Task: Data request, read-out IC50, for Cc1n[nH]c2ccc(-c3cncc(N4CCCNCC4)n3)cc12
Output: 36 nM
